These data points were gathered from paper PMC10397247.

Assayed system: T1, 4H3628-bH
T1 chain: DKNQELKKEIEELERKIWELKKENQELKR
Experimental details: two-hybrid library CCNG1;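 also: natural log of median RNA to DNA barcode read ratio; higher means stronger binding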
Attribute measured: interaction score

- Binder: "DKNQELKKEIEELERENWELKKKIQELER [4H3613-bH]"
  interaction score: -0.609

P: DENQELKKEIEELEREIWELEKKNQELKR [4H1544-bH]
Q: DENQELKKKIEELKRKIWELKKENQELER [4H1899-bH]
Hey, between P and Q which has a smaller measured interaction score? Record your answer as the label of the chosen record. P

I: DENQELEKKIEELERKNWELKKEIQELKR [4H1338-bH]
II: DENQELEKKIEELKREIWELEKENQELKR [4H1348-bH]
III: DENQELEKENEELKREIWELEKKIQELKR [4H1222-bH]
Put the binders in ascending order of interaction score. // list labels; follow requested order I, III, II
(I: 0.15, III: 0.758, II: 1.42)

a: DKNQELKKEIEELERKIWELKKENQELKR [4H3628-bH]
b: DKIQQLKQEIQELEQENQELKWEIQELKQ [4H2586-bN]
Hey, between a and b which has a smaller measured interaction score? Record your answer as the label of the chosen record. a

1: DENQELKKENEELERKIWELKKKIQELKR [4H1710-bH]
2: DKNQELEKENEELKRKIWELEKEIQELKR [4H3298-bH]
Which shows the larger interaction score value: 1 or 2 ? Record your answer as the label of the chosen record. 1
(1: 1.35, 2: 0.519)

a: DKNQELEKEIEELKRENWELKKEIQELKR [4H3162-bH]
b: DENQELEKEIEELERKNWELKKEIQELER [4H1081-bH]
c: DENQELKKKNEELKREIWELEKEIQELER [4H1985-bH]
Sort these binders on interaction score so the largest reading comes first. // list labels; follow requested order c, b, a
(c: -0.631, b: -1.16, a: -1.68)

I: DENQELEKKIEELKRENWELKKKIQELER [4H1373-bH]
II: DKNQELEKKNEELERKIWELKKEIQELER [4H3497-bH]
Hey, between I and II which has a smaller measured interaction score? Record your answer as the label of the chosen record. I

I: DKNQELEKKNEELEREIWELEKKIQELKR [4H3462-bH]
II: DENQELEKKNEELERKIWELKKEIQELER [4H1449-bH]
III: DKNQELEKENEELKREIWELKKKIQELER [4H3277-bH]
Sort these binders on interaction score so the largest reading comes first. // list labels; follow requested order I, II, III
(I: 0.726, II: -0.479, III: -1.48)
